Quick reference: Kd of the listed items.
- target-under-test: T1, human eIF2Bε-CTD (human, UniProt Q13144 543-721)
- T1 sequence (looked up): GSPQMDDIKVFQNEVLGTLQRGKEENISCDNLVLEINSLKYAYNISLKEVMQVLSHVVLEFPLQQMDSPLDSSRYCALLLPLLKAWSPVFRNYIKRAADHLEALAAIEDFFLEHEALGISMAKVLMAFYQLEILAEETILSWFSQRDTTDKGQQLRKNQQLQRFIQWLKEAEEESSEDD
- experiment: NMR titration
Return type: number; implicit unit µM.

binder	Kd [µM]
MSGDEMIFDPTMSKKKKKKKKPFMLDEEGDTQTEETQPSETKEVE (domain or fragment, UniProt P20042 1-45, looked up) [human eIF2β-K1 (K-box 1 with surrounding segments)]	8
human eIF2β-K3 (K-box 3 with surrounding segments) (domain or fragment, UniProt P20042 106-173, looked up) DVQEPTEPEDDLDIMLGNKKKKKKNVKFPDEDEILEKDEALEDEDNKKDDGISFSNQTGPAWAGSERD	24

Item under review: DTRKKDASDDLDDLNFFNQKKKKKKTKKIFDIDEAEEGVKDLKIES (domain or fragment, UniProt P20042 60-105, looked up) [human eIF2β-K2 (K-box 2 with surrounding segments)] . Reported Kd? 9
